Assignment: determine reported log10 TGI for the given compounds.
- Tested on: SN12C renal
- test details: NCI tumour cell line growth inhibition, 48 h
Note: values are log10 of TGI expressed in µM.

log10 TGI reported for this compound CCCCCCCCNC(C)C(O)c1ccc(SC(C)C)cc1 (stereo not drawn) : 0.50

Looking up CCOC(=O)c1ccccc1SC(C[N+](=O)[O-])c1ccccc1 (stereo not drawn) , I see its log10 TGI listed as 1.32

Value of measured log10 TGI for the entry Cn1cnc(SC2=C3C(=O)C=C4S[C@H]5C[C@]42c2c(c(O)c4c6c2=[N+]3CCC=6C=N4)N5)c1CC(N)C(=O)O (stereo partly drawn) : 1.01

Record Cc1ccc(-c2cc(-c3ccc(C)cc3)nc(N3CCN(CCNc4ccnc5cc(Cl)ccc45)CC3)n2)cc1 . Reported log10 TGI: 1.17

// CCCCCCCCCCCC1=NC(C)(C)CN1CC(C)O (stereo not drawn) : log10 TGI value = 1.31

Entry under test: OC1(c2ccc(Cl)cc2)c2c(c3ccccc3c3ccccc23)C2=NCCN21 (stereo not drawn) . Its log10 TGI was 1.65

Reported log10 TGI ( c1ccc2c(c1)Sc1ccccc1N2C1CN2CCC1CC2 (stereo not drawn) ) = 1.46

The reported log10 TGI of the compound C[C@@H](Oc1cc(-n2cnc3ccc(OCC4CCN(C)CC4)cc32)sc1C(N)=O)c1ccccc1Cl was 0.66

---

- System: IGROV1 ovarian
- test details: NCI tumour cell line growth inhibition, 48 h
For each record, write down the corresponding GI50.

The reported GI50 of the compound CC(C)=CC(=O)N[C@@H]1CC2CCC3C(CC[C@@]4(C)C3CC[C@@H]4C(C)N(C)C)[C@@]2(C)C[C@@H]1O (stereo partly specified) was 5.54 µM

Data point: O=C(Cn1c(C(=O)c2ccc(Cl)cc2)nc(-c2ccccc2)c1-c1ccccc1)c1ccc(Cl)cc1 ; GI50 = > 100 µM

# compound Fc1cccc(Cl)c1Cn1c(-c2c(F)cccc2Cl)nc2ccccc21 ; its GI50 = 21.9 µM

Data point: O=C1CC(c2ccsc2)c2snc(-c3ccc(Cl)cc3)c2N1 (stereo unspecified) ; GI50 = 2.87 µM

Looking up Cc1cc(NCc2cc(Nc3ccnc4cc(Cl)ccc34)ccc2F)nc(N2CCSCC2)n1 , I found its GI50 recorded as 1.83 µM

Lab book: GI50 of Clc1ccc2nc(Cl)c3ccccc3c2c1 noted as 6.21 µM

// GI50 value for COc1ccc(-c2nnc(SCC(=O)Nc3ccc(C(=O)/C=C/c4cc(OC)c(OC)c(OC)c4)cc3)n2-c2ccccc2)cc1OC : 7.72 µM

Short answer for O=C1NC(=O)[C@@H](c2c[nH]c3ccccc23)[C@@H]1c1c[nH]c2ccccc12 : GI50 was > 25 µM

For this compound ( CCOC(=O)Cn1c(-c2nonc2NC(=O)c2ccccc2F)nc2ccccc21 ), measured GI50 is 9.85 µM

Entry COc1ccc(-n2cc(-c3cc(OC)c(OC)c(OC)c3)[nH]c2=S)cc1Cl , GI50 reported as 25.6 µM

The compound listed as COc1ccc(-c2nc(-c3ccccn3)c(-c3ccccn3)n2CC(C)C)cc1OC1CCCC1 has a reported GI50 of 11.5 µM

---

Give measured TGI for each item. Keep answers brief.
- Test system: SF-539 CNS
- test details: NCI tumour cell line growth inhibition, 48 h

Field TGI (SF-539 CNS), entry COc1ccc(/C=N\NC(=O)c2ccc3nc(-c4ccc(Cl)cc4)[nH]c3c2)cc1 : 3.46 µM

Log: SF-539 CNS, compound C=C(C)[C@@H]1CC[C@]2(C(=O)O)CC[C@]3(C)[C@H](CC[C@@H]4[C@@]5(C)C/C(=C/c6cccc(I)c6)C(=O)C(C)(C)[C@@H]5CC[C@]43C)[C@@H]12 , TGI = 5.52 µM

Lab entry: SF-539 CNS assay, compound CC(=O)OCC1OC(n2c(N)c(C#N)c(-c3cccc(Cl)c3)c(C#N)c2=S)C(OC(C)=O)C(OC(C)=O)C1OC(C)=O (configuration not stated) , TGI = 27.7 µM

// returns TGI for CC[C@H](C)[C@H](NC(=O)NC(C)(C)C)C(=O)N(C)[C@H](C[C@@H](OC(C)=O)c1nc(C(=O)N[C@@H](Cc2ccccc2)C[C@H](C)C(=O)OC)cs1)C(C)C with SF-539 CNS; value = 1.82 µM

// assay SF-539 CNS, entry CCCC(=O)c1ccc(=O)n(C)c1 , TGI value = > 100 µM

Lab note: compound CO[C@]12CC(=O)C3(C(C[C@H]4CC5CC[C@H]6C[C@@H](OC(C)=O)CC[C@]6(OC(C)=O)C5C[C@@]43C)C1)C1C[C@H]3[C@@H]4CC[C@H]5C[C@@H](OC(C)=O)CC[C@]5(OC(C)=O)[C@H]4CC[C@]3(C)C12 (some centres not stated) tested on SF-539 CNS; recorded TGI was > 100 µM

Response field TGI (SF-539 CNS) for item CCOC(=O)c1ccccc1SC(C[N+](=O)[O-])c1ccccc1 (configuration not stated) : 12 µM

---

- System: HS 578T breast
- test details: NCI tumour cell line growth inhibition, 48 h; in the data active = GI50 below about 0.43 µM; inactive = the rest
Log the outcome using a class from active, inactive

Problem: Recorded test call requested for O=C(Nc1ccc(Nc2ccncc2)cc1)c1ccc(Nc2ccnc3ccc([N+](=O)[O-])cc23)cc1[N+](=O)[O-]
Solution: inactive

Problem: How was COc1ccc2c(c1)[nH]c(=O)c1c3cc(OC)c(OC)cc3cn21 classified in this test?
Solution: active

Problem: Tell me the assay call for CNC(=O)c1cc(Oc2ccc3nc(N[C@@H]4CCCC[C@H]4O)sc3c2)ccn1 please.
Solution: inactive

Problem: Identify the outcome logged in this assay for the compound shown: O=C1CC(c2ccsc2)c2snc(-c3ccc(Cl)cc3)c2N1 (configuration not stated)
Solution: inactive

Problem: Returns: the outcome recorded for COc1ccc(C(=O)/C=C/c2cc(-c3ccc4c(c3)OCO4)n[nH]2)cc1OC in this assay.
Solution: inactive

Problem: Record lookup: outcome of this test for COc1cc(C(=O)O/N=C(\N)Cc2cccc3ccccc23)cc(OC)c1OC ?
Solution: inactive

Problem: Assay outcome for CN1CCN(c2ccc3nc(-c4[nH]ncc4Nc4ncnc5c4OCCCN5)[nH]c3c2)CC1 : what was it?
Solution: active

---

- System: SK-MEL-5 melanoma
- test details: NCI tumour cell line growth inhibition, 48 h
Use YES when the recorded TGI is no lower than 30 µM; use NO when it is lower.

Problem: I'd appreciate it if you could say whether O=C1c2cccc3c(Cl)ccc(c23)C(=O)N1CCCN1CCN(CCCN2C(=O)c3cccc4c(Cl)ccc(c34)C2=O)CC1 has TGI at least equal to 30 µM.
Solution: YES

Problem: Check if TGI >= 30 µM (inclusive). Item: O=C(NNS(=O)(=O)c1ccccc1)c1csc(NC(=S)NC2CCCCC2)n1
Solution: NO

Problem: Reported TGI at or above 30 µM? CC(C)=CCC[C@@H](C)C1=CC(=O)C(C)=C(O)C1=O
Solution: NO

Problem: Does TGI meet or surpass 30 µM for O=C1O[C@H]2C3C4CCC(C4[C@@H]2I)[C@H]13 (stereo not given in full) ?
Solution: YES

Problem: I'd appreciate it if you could say whether Clc1ccc2nc(Cl)c3ccccc3c2c1 has TGI at least equal to 30 µM.
Solution: YES

Problem: Record CN1CCN(c2ccc3nc(-c4[nH]ncc4Nc4ncnc5c4OCCCN5)[nH]c3c2)CC1 ; criterion: TGI no lower than 30 µM. Met?
Solution: NO

Problem: Determine whether this compound has TGI no lower than 30 µM: OCC1OC(c2ccccc2)CC1O (stereo not given)
Solution: YES

Problem: I'd appreciate it if you could say whether CC(=O)OCC1OC(SC2=NC(=O)/C(=C/c3ccccc3)S2)C(OC(C)=O)C(OC(C)=O)C1OC(C)=O (stereo not given) has TGI at least equal to 30 µM.
Solution: YES

Problem: Does COc1ccccc1NC(=O)C1=C(C)NC(C)=C(C(=O)Nc2ccccc2OC)C1c1cccc2ccccc12 have a reported TGI of at least 30 µM?
Solution: YES

Problem: Check this compound for TGI at or above 30 µM: O=C1c2cccnc2-c2nccc3c2c1nc1ccc(Br)cc13
Solution: NO

Problem: Record COc1ccc(Cn2c3ccc([N+](=O)[O-])cc3c(=O)n2Cc2ccccn2)cc1 ; criterion: TGI no lower than 30 µM. Met?
Solution: YES

Problem: Determine whether measured TGI meets or exceeds 30 µM for CO[C@]12CC(=O)C3(C(C[C@H]4CC5CC[C@H]6C[C@@H](OC(C)=O)CC[C@]6(OC(C)=O)C5C[C@@]43C)C1)C1C[C@H]3[C@@H]4CC[C@H]5C[C@@H](OC(C)=O)CC[C@]5(OC(C)=O)[C@H]4CC[C@]3(C)C12 (stereo not given in full)
Solution: YES

Problem: Entry CC1CCOc2ccc(cc2)C=Nc2ccc(cc2)-c2ccc(cc2)N=Cc2ccc(cc2)OCC1 (stereo not given) : is its TGI no less than 30 µM?
Solution: YES

Problem: Entry O=C(N[C@H]1CCC[C@H]1C(=O)Nc1ccc(C(F)(F)F)cc1)OCc1ccccc1 : is its TGI no less than 30 µM?
Solution: YES

Problem: Say whether COc1cc2cnc(-c3ccccc3)cc2cc1OC shows TGI of 30 µM or more.
Solution: NO

Problem: hey, is TGI for this one >= 30 µM? Nc1ccccc1OCCCOc1ccccc1N
Solution: YES

Problem: Decide: TGI of Cc1ccc(C#CS(=O)(=O)C(F)(F)F)cc1 >= 30 µM?
Solution: YES

Problem: Threshold query (TGI >= 30 µM) on CCOC(=O)C(NC(=O)CC)(Nc1ccc(S(=O)(=O)Nc2ccc(OC)nn2)cc1)C(F)(F)F (stereo not given)
Solution: YES
